Exercise: state measured viability, T/C for each of the compounds provided.
System: 324938-238-R-J1-PDC complex spheroid growth, % test/control
method: Anticancer human tumor 324938-238-R-J1-PDC patient-derived bladder carcinoma cell line growth inhibition [AhR]
measurement-context: second compound 0.316 µM; first compound 0.0949 µM; hits give low values
Field: numeric (%). Do not append units.

Exam item: Name the recorded viability, T/C of the compound listed here: CC(C)CC(NC(=O)C(Cc1ccccc1)NC(=O)c1cnccn1)B(O)O (stereo unspecified) + Cc1ccccc1N=Nc1ccc(NC(=O)c2ccnn2C)c(C)c1
Marked response: 0.05

Exam item: Name the recorded viability, T/C of the compound listed here: CCN(c1cc(-c2ccc(CN3CCOCC3)cc2)cc(C(=O)NCc2c(C)cc(C)[nH]c2=O)c1C)C1CCOCC1 + CC(CO)NC(=O)c1cc(-c2ccc(Cl)cc2)nn(-c2cnn(C)c2)c1=O
Marked response: 92.8

Exam item: Name the recorded viability, T/C of the compound listed here: Nc1ncn(C2CC(O)C(CO)S2)c(=O)n1 (stereo unspecified) + Cc1ccccc1N=Nc1ccc(NC(=O)c2ccnn2C)c(C)c1
Marked response: 71.8

Exam item: Name the recorded viability, T/C of the compound listed here: Nc1ncn(C2CC(O)C(CO)S2)c(=O)n1 (stereo unspecified) + CC(CO)NC(=O)c1cc(-c2ccc(Cl)cc2)nn(-c2cnn(C)c2)c1=O
Marked response: 64.2

Exam item: Name the recorded viability, T/C of the compound listed here: CCc1c2c(nc3ccc(O)cc13)-c1cc3c(c(=O)n1C2)COC(=O)[C@]3(O)CC + CC(CO)NC(=O)c1cc(-c2ccc(Cl)cc2)nn(-c2cnn(C)c2)c1=O
Marked response: 15.8

Exam item: Name the recorded viability, T/C of the compound listed here: CCc1c2c(nc3ccc(O)cc13)-c1cc3c(c(=O)n1C2)COC(=O)[C@]3(O)CC + Cc1cncc(-c2nc(NCCc3c[nH]c4ccccc34)c3ncn(C(C)C)c3n2)c1
Marked response: 63.5

###

Exercise: state measured viability, T/C for each of the compounds provided.
System: 324938-238-R-J1-PDC complex spheroid growth, % test/control
method: Anticancer human tumor 324938-238-R-J1-PDC cell line growth inhibition [AhR];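 further: spheroids exposed to agents for seven days before viability read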
measurement-context: second compound 3.16 µM; first compound 0.0316 µM; hits give low values

Exam item: Name the recorded viability, T/C of the compound listed here: COc1cc(C2c3cc4c(cc3C(OC3OC5COC(C)OC5C(O)C3O)C3COC(=O)C23)OCO4)cc(OC)c1O (stereo unspecified) + Cc1cncc(-c2nc(NCCc3c[nH]c4ccccc34)c3ncn(C(C)C)c3n2)c1
Marked response: 86%

Exam item: Name the recorded viability, T/C of the compound listed here: Cn1ncnc1C1c2n[nH]c(=O)c3cc(F)cc(c23)NC1c1ccc(F)cc1 (stereo unspecified) + CC(CO)NC(=O)c1cc(-c2ccc(Cl)cc2)nn(-c2cnn(C)c2)c1=O
Marked response: 52.1%

Exam item: Name the recorded viability, T/C of the compound listed here: COc1cc(Nc2ncc3c(n2)-c2ccc(Cl)cc2C(c2c(F)cccc2OC)=NC3)ccc1C(=O)O + CC(CO)NC(=O)c1cc(-c2ccc(Cl)cc2)nn(-c2cnn(C)c2)c1=O
Marked response: 49.4%

Exam item: Name the recorded viability, T/C of the compound listed here: COc1cc(C2c3cc4c(cc3C(OC3OC5COC(C)OC5C(O)C3O)C3COC(=O)C23)OCO4)cc(OC)c1O (stereo unspecified) + Cc1ccccc1N=Nc1ccc(NC(=O)c2ccnn2C)c(C)c1
Marked response: 68.2%

Exam item: Name the recorded viability, T/C of the compound listed here: Nc1ccccc1NC(=O)c1ccc(CNC(=O)OCc2cccnc2)cc1 + CC(CO)NC(=O)c1cc(-c2ccc(Cl)cc2)nn(-c2cnn(C)c2)c1=O
Marked response: 88%

Exam item: Name the recorded viability, T/C of the compound listed here: COc1cccc2c1C(=O)c1c(O)c3c(c(O)c1C2=O)CC(O)(C(=O)CO)CC3OC1CC(N)C(O)C(C)O1 (stereo unspecified) + CC(CO)NC(=O)c1cc(-c2ccc(Cl)cc2)nn(-c2cnn(C)c2)c1=O
Marked response: 31%

Values were extracted from PubChem BioAssay AID1918995.
